tested.on: fungal (fACC2)
condition.notes: read-out: fACC2 (in vitro ACC2 Inhibition Assay, IC50); Table 2b, additional results; ADP-Glo, 5 nM ACC2, 20 μM ATP, 20 μM acetyl-CoA
Consider the following compounds; for each one, report its IC50.

Please state IC50 for every compound in the list that follows.
1. COc1ccc(F)cc1[C@@H](O)Cn1c(=O)n(C(C)(C)C(N)=O)c(=O)c2c(C)c(-n3nccn3)sc21
2. COc1ccc(F)cc1[C@@H](O)Cn1c(=O)n([C@H](C)C(=O)N2CCCC2)c(=O)c2c(C)c(-n3nccn3)sc21
3. COc1ccc(F)cc1[C@H](Cn1c(=O)n(C(C)(C)C(=O)NC2CCCCC2)c(=O)c2c(C)c(-n3nccn3)sc21)OCC(C)=O
4. COc1ccc(F)cc1[C@H](Cn1c(=O)n([C@H](C)C(=O)NC(C)C)c(=O)c2c(C)c(-n3nccn3)sc21)OCCC#N
5. COc1ccc(F)cc1[C@H](Cn1c(=O)n(C(C)(C)C(N)=O)c(=O)c2c(C)c(-n3nccn3)sc21)OC[C@@H](C)C#N

1: 1 to 5 nM; 2: 0.3 to 1 nM; 3: 1 to 5 nM; 4: 0.3 to 1 nM; 5: 0.3 to 1 nM

Please state IC50 for every compound in the list that follows.
1. CCc1ccc(F)cc1[C@H](Cn1c(=O)n(C(C)(C)C(=O)NC(C)C)c(=O)c2c(C)c(-n3nccn3)sc21)OC[C@@H](C)C#N
2. COCCO[C@@H](Cn1c(=O)n(C(C)(C)C(=O)NC2CCC2)c(=O)c2c(C)c(-n3nccn3)sc21)c1cc(F)ccc1OC [Compound I-134]

1. 1 to 5 nM
2. 1 to 5 nM
